This collection of values is drawn from patent US6093732A.

# experimental target: HSV polymerase (Human herpesvirus 1)
# Sequence (P04293 whole entry): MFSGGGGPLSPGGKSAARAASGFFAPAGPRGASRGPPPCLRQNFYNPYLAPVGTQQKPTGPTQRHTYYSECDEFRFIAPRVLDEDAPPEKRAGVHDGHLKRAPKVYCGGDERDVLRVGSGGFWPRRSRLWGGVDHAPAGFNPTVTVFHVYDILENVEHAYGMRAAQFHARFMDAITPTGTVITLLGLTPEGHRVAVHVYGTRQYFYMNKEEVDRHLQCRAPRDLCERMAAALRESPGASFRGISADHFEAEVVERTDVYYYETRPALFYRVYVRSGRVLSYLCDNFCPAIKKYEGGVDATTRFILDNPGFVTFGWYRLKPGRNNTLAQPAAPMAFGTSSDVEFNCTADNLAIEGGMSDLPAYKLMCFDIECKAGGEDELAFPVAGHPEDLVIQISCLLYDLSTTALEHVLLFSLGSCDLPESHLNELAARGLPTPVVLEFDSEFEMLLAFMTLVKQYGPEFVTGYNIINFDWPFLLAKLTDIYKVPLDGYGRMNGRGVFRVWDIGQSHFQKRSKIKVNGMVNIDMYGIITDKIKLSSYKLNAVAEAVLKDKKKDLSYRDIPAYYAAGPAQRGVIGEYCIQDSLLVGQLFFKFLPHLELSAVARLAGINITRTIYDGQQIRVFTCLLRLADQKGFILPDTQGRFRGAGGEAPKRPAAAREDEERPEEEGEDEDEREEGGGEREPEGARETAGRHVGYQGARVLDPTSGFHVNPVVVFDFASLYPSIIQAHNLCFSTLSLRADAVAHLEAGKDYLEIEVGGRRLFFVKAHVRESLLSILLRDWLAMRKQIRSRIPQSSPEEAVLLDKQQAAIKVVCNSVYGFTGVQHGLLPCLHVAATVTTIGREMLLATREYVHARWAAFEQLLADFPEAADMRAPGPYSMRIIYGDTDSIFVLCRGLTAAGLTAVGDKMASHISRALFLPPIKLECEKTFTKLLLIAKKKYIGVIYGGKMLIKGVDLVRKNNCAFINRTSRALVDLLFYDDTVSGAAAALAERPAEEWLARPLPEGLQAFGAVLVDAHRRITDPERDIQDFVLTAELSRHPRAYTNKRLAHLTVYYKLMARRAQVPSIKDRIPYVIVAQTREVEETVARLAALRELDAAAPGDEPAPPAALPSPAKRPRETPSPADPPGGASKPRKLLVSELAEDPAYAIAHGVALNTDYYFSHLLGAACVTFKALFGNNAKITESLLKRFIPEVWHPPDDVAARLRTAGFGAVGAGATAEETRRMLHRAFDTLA
pIC50: −log10 of the molar value.
Please mark Condition met if the recorded pIC50 is equal to or greater than 5, and Condition not met if it falls below.

Form field: pIC50 at least 5? Entry: O=C(NCc1ccc(Cl)cc1)c1cnc2c(F)cc(CCCCO)cc2c1O [Example 99] Condition met

Form field: pIC50 at least 5? Entry: O=C(NCc1ccc(Cl)cc1)c1cnc2ccc(F)cc2c1O [Example 10] Condition not met

Form field: pIC50 at least 5? Entry: O=C(NCc1ccc(Cl)cc1)c1cnc2c(OCCO)cc(CCCO)cc2c1O [Example 124] Condition met

Form field: pIC50 at least 5? Entry: O=C(NCc1ccc(Cl)cc1)c1cnc2c(F)cccc2c1O [Example 12] Condition met

Form field: pIC50 at least 5? Entry: Nc1ccc2c(O)c(C(=O)NCc3ccc(Cl)cc3)cnc2c1 [Example 2] Condition met

Form field: pIC50 at least 5? Entry: CS(=O)(=O)Nc1ccc2c(O)c(C(=O)NCc3ccc(Cl)cc3)cnc2c1 [Example 26] Condition not met

Form field: pIC50 at least 5? Entry: O=C(NCc1ccc(Cl)cc1)c1cnc2ccc([N+](=O)[O-])cc2c1O [Example 13] Condition met

Form field: pIC50 at least 5? Entry: O=C(NCc1ccc(Cl)cc1)c1cnc2cc(F)ccc2c1O [Example 9] Condition met

----------
# experimental target: HCMV polymerase (Human cytomegalovirus, UniProt P08546)
# Construct: made in house; host or cells: recombinant baculovirus-infected SF-9 cells
# Sequence (P08546 whole entry): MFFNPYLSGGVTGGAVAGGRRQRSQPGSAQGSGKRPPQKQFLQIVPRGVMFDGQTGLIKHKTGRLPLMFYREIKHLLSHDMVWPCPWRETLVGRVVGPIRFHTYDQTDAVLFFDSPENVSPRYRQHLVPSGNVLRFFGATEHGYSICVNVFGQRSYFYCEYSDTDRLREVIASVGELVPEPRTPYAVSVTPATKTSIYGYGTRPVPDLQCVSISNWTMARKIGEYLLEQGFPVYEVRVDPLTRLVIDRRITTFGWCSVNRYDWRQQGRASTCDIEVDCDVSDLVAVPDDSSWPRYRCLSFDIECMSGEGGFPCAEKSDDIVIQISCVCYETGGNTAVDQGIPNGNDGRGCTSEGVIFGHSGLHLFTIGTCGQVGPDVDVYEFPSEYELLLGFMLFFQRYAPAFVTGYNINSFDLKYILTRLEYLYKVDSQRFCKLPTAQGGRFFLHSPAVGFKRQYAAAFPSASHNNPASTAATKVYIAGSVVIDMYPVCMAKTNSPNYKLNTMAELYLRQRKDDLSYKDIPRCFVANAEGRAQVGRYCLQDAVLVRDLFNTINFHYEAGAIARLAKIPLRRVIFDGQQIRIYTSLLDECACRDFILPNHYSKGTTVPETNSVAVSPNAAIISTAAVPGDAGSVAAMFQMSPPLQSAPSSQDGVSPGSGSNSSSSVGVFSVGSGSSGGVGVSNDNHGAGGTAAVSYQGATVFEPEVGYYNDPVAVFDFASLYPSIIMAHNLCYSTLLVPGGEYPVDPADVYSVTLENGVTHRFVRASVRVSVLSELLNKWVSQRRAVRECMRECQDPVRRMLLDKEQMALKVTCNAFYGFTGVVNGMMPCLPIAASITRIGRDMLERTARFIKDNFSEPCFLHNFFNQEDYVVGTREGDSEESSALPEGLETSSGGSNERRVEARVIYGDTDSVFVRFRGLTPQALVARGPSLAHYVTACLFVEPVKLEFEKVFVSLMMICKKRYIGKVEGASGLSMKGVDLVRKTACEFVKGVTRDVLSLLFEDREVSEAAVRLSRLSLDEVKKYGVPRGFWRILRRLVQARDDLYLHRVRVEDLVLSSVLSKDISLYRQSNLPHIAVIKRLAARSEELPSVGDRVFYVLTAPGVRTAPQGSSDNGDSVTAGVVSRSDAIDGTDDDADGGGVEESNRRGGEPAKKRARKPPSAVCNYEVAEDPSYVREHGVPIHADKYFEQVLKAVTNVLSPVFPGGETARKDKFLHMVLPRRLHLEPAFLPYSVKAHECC
# assay info: HCMV polymerase scintillation proximity assay (SPA), modified version
# Type: biochemical
# protocol conditions: CMV polymerase; Table 1; modified assay with 4.5 mM DTT, compounds in 100% DMSO; read-out: Antiviral Selective Polymerase IC50 Values, CMV
observation type: pIC50
Friendly reminder that pIC50 comes from taking -log10 of the concentration in mol/L.

Need pIC50 of N#Cc1cc(F)c2ncc(C(=O)NCc3ccc(Cl)cc3)c(O)c2c1 , thanks. 4.91

Need pIC50 of O=C(NCc1ccc(Cl)cc1)c1cnc2cc(S(=O)(=O)NCc3cccc4ccccc34)ccc2c1O , thanks. 6.11

Need pIC50 of Nc1ccc(CNS(=O)(=O)c2cc(F)c3ncc(C(=O)NCc4ccc(Cl)cc4)c(O)c3c2)cc1 , thanks. 5.00

Need pIC50 of CN(CCCc1cc(F)c2ncc(C(=O)NCc3ccc(Cl)cc3)c(O)c2c1)Cc1ccccc1 , thanks. 5.19

Need pIC50 of NNC(=S)c1cc(F)c2ncc(C(=O)NCc3ccc(Cl)cc3)c(O)c2c1 , thanks. 5.89

Need pIC50 of CCOC(=O)CNS(=O)(=O)c1cc(F)c2ncc(C(=O)NCc3ccc(Cl)cc3)c(O)c2c1 , thanks. 4.71

Need pIC50 of CCSCCNS(=O)(=O)c1cc(F)c2ncc(C(=O)NCc3ccc(Cl)cc3)c(O)c2c1 [Example 247] , thanks. 4.99

Need pIC50 of O=C(NCCO)c1cc(F)c2ncc(C(=O)NCc3ccc(Cl)cc3)c(O)c2c1 , thanks. 4.41

----------
# experimental target: HCMV polymerase (Human cytomegalovirus)
# Construct: made in house; host or cells: recombinant baculovirus-infected SF-9 cells
# assay info: HCMV polymerase scintillation proximity assay (SPA), modified version
# Format: biochemical
# protocol conditions: CMV polymerase; Table 1; modified assay with 4.5 mM DTT, compounds in 100% DMSO; read-out: Antiviral Selective Polymerase IC50 Values, CMV
observation type: pIC50
Friendly reminder that pIC50 comes from taking -log10 of the concentration in mol/L.

Need pIC50 of O=C(NCc1ccc(Cl)cc1)c1cnc2c(F)cc(CCCO)cc2c1O [Example 110] , thanks. 6.55

Need pIC50 of O=C(NCc1ccc(Cl)cc1)c1cnc2cccc(O)c2c1O [Example 42] , thanks. 4.72

Need pIC50 of O=C(NCc1ccc(Cl)cc1)c1cnc2c(F)c(F)c(F)c(F)c2c1O [Example 14] , thanks. 4.94

Need pIC50 of O=C(NCc1ccc(Cl)cc1)c1cnc2c(Cl)ccc(C(F)(F)F)c2c1O [Example 59] , thanks. 4.48

Need pIC50 of O=C(NCc1ccc(Cl)cc1)c1cnc2cc(F)c(F)cc2c1O [Example 169] , thanks. 5.43

Need pIC50 of N#Cc1ccc2ncc(C(=O)NCc3ccc(Cl)cc3)c(O)c2c1 [Example 24] , thanks. 5.31

Need pIC50 of CCCc1ccc2ncc(C(=O)NCc3ccc(Cl)cc3)c(O)c2c1 [Example 151] , thanks. 6.04

Need pIC50 of CC(C)CCNS(=O)(=O)c1cc(F)c2ncc(C(=O)NCc3ccc(Cl)cc3)c(O)c2c1 [Example 233] , thanks. 4.95

Need pIC50 of O=C(NCc1ccc(Cl)cc1)c1cnc2c(O)cccc2c1O [Example 45] , thanks. 5.34

Need pIC50 of COc1cc(I)cc2c(O)c(C(=O)NCc3ccc(Cl)cc3)cnc12 [Example 117] , thanks. 5.06

Need pIC50 of COCCOc1c(F)cc2c(O)c(C(=O)NCc3ccc(Cl)cc3)cnc2c1F [Example 83] , thanks. 5.37

Need pIC50 of O=C(NCc1ccc(Cl)cc1)c1cnc2c(F)cc(S(=O)(=O)NCCSCCO)cc2c1O [Example 263] , thanks. 4.64

Need pIC50 of O=C(NCc1ccc(Cl)cc1)c1cnc2ccc3[nH]ncc3c2c1O [Example 116] , thanks. 4.78

Need pIC50 of O=C(NCc1ccc(Cl)cc1)c1cnc2c(OC3CCOCC3)c(F)c(F)cc2c1O [Example 78] , thanks. 6.15

Need pIC50 of CC(C)(C)O[PH](=O)OCCCc1ccc2ncc(C(=O)NCc3ccc(Cl)cc3)c(O)c2c1 (centres unmarked) [Example 270] , thanks. 5.55

Need pIC50 of O=C(NCc1ccc(Cl)cc1)c1cnc2c(F)cc(S(=O)(=O)NCCN(CCO)CCO)cc2c1O [Example 250] , thanks. 4.34

Need pIC50 of O=C(NCc1ccc(Cl)cc1)c1cnc2c(F)cc(CO)cc2c1O [Example 141] , thanks. 5.00

Need pIC50 of O=C(NNc1ccc(Cl)cc1)c1cnc2c(F)cc(I)cc2c1O [Example 54] , thanks. 5.07

Need pIC50 of Cc1cc(Cl)cc2c(O)c(C(=O)NCc3ccc(Cl)cc3)cnc12 [Example 167] , thanks. 5.30

Need pIC50 of O=C(NCc1ccc(Cl)cc1)c1cnc2c(F)cc(C(=O)N3CCOCC3)cc2c1O [Example 180] , thanks. 4.55

Need pIC50 of COc1c(F)cc2c(O)c(C(=O)NCc3ccc(Cl)cc3)cnc2c1F [Example 82] , thanks. 5.60

Need pIC50 of O=C(NCc1ccc(Cl)cc1)c1cnc2ccccc2c1O [Example 6] , thanks. 5.12

Need pIC50 of O=CCCc1cc(F)c2ncc(C(=O)NCc3ccc(Cl)cc3)c(O)c2c1 [Example 139] , thanks. 5.72

Need pIC50 of CC(O)C#Cc1ccc2ncc(C(=O)NCc3ccc(Cl)cc3)c(O)c2c1 (centres unmarked) [Example 152] , thanks. 5.27

Need pIC50 of CC(=O)CCc1cc(F)c2ncc(C(=O)NCc3ccc(Cl)cc3)c(O)c2c1 [Example 160] , thanks. 5.92

Need pIC50 of CSC/C=C\c1cc(F)c2ncc(C(=O)NCc3ccc(Cl)cc3)c(O)c2c1 [Example 128] , thanks. 6.34

Need pIC50 of Cc1ccccc1-c1cc(F)c2ncc(C(=O)NCc3ccc(Cl)cc3)c(O)c2c1 [Example 77] , thanks. 5.40

Need pIC50 of O=C(NCc1ccc(Cl)cc1)c1cnc2c(F)cc(S(=O)(=O)NCCc3ccccn3)cc2c1O [Example 217] , thanks. 4.82

Need pIC50 of O=C(Nc1ccccc1)OCC#Cc1cc(F)c2ncc(C(=O)NCc3ccc(Cl)cc3)c(O)c2c1 [Example 150] , thanks. 5.32

Need pIC50 of COC(=O)c1ccc2ncc(C(=O)NCc3ccc(Cl)cc3)c(O)c2c1 [Example 165] , thanks. 5.17

Need pIC50 of CN(CCS(=O)(=O)O)C(=O)CCCCCCC(=O)OCC#Cc1cc(F)c2ncc(C(=O)NCc3ccc(Cl)cc3)c(O)c2c1 [Example 275] , thanks. 4.55

Need pIC50 of O=C(NCc1ccc(Cl)cc1)c1cnc2ccc(I)cc2c1O [Example 40] , thanks. 5.46

Need pIC50 of O=C(NCc1ccc(Cl)cc1)c1cnc2c(F)cc(-c3cc(Br)cs3)cc2c1O [Example 97] , thanks. 4.73

Need pIC50 of Cc1cc(F)c2ncc(C(=O)NNc3ccc(Cl)cc3)c(O)c2c1 [Example 55] , thanks. 5.30

Need pIC50 of O=C(NCc1ccc(Cl)cc1)c1cnc2cc(Cl)ccc2c1O [Example 56] , thanks. 5.51
